- SYSTEM TESTED: human FAAH (Homo sapiens, UniProt O00519)
- Sequence (O00519 1-579): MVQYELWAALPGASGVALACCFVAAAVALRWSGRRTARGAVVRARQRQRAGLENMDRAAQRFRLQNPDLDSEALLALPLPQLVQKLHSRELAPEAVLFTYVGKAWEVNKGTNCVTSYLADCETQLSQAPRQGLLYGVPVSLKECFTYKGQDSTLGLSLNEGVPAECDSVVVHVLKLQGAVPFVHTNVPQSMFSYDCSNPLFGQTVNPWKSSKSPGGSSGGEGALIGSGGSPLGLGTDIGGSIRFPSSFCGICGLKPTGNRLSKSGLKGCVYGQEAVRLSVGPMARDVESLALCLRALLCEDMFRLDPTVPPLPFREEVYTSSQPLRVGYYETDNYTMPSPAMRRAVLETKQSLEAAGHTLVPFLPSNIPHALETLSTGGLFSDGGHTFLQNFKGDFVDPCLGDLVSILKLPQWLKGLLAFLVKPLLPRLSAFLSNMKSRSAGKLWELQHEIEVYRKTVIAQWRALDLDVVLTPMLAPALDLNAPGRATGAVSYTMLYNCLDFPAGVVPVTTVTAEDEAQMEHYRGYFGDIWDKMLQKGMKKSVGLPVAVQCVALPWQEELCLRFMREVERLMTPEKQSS
pIC50: −log10 of the molar value.
Each item that follows carries a reported pIC50.

{"COMPOUND": "COc1cccc(OC)c1OC(=O)NCCCCCCn1c(C)nc(-c2ccccc2)c1-c1ccccc1", "pIC50": "6.00 to 7.00"}
{"COMPOUND": "COc1cccc(OC)c1OC(=O)NCCCCCn1c(C)nc(-c2ccccc2)c1-c1ccccc1", "pIC50": "5.00 to 6.00"}
{"COMPOUND": "CCC(CCCCCn1c(C)nc(-c2ccccc2)c1-c1ccccc1)NC(=O)Oc1ccccc1F (centres unmarked)", "pIC50": "7.00 to 8.00"}
{"COMPOUND": "Cc1nc(-c2ccccc2)c(-c2ccccc2)n1CCCOc1ccc(NC(=O)Oc2cccc(Cl)c2)cc1", "pIC50": "6.00 to 7.00"}
{"COMPOUND": "Cc1nc(-c2ccccc2)c(-c2ccccc2)n1CCCCCCNC(=O)Oc1ccc(Cl)cc1", "pIC50": "> 8.00"}
{"COMPOUND": "Cc1nc(-c2ccccc2)c(-c2ccccc2)n1CCCCCCCNC(=O)Oc1ccccc1", "pIC50": "> 8.00"}
{"COMPOUND": "Cc1nc(-c2ccccc2)c(-c2ccccc2)n1CCCCCC(C)NC(=O)Oc1ccccc1F (centres unmarked)", "pIC50": "> 8.00"}
{"COMPOUND": "Cc1nc(-c2ccccc2)c(-c2ccccc2)n1CCCCCCNC(=O)Oc1ccccc1F", "pIC50": "> 8.00"}

====

- SYSTEM TESTED: human FAAH (Homo sapiens)
- Sequence (O00519 1-579): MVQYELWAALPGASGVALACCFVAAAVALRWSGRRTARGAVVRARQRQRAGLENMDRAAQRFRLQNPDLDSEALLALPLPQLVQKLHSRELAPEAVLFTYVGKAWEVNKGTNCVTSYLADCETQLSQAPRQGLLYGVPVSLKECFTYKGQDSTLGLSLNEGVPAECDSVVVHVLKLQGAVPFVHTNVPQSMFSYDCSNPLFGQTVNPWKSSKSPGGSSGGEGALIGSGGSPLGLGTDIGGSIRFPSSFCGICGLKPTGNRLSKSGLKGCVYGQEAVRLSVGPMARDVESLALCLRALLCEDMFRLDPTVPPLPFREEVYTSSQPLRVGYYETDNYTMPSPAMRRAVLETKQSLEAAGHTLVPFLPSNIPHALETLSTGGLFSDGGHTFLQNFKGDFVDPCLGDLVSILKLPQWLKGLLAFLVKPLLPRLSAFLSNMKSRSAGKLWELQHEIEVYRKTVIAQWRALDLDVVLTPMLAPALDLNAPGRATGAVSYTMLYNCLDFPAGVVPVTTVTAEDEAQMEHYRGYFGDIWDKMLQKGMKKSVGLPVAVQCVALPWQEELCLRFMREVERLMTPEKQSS
Here, each record is paired with measured IC50 data.

{"COMPOUND": "COc1ccc(OC(=O)NCCCCCCCn2c(C)nc(-c3ccccc3)c2-c2ccccc2)cc1 [Example 25]", "SYSTEM TESTED": "human FAAH (Homo sapiens)", "IC50": "10 to 100 nM"}
{"COMPOUND": "CCOC(=O)NCCCCCCCn1c(C)nc(-c2ccccc2)c1-c1ccccc1 [Example 19]", "SYSTEM TESTED": "human FAAH (Homo sapiens)", "IC50": "10 to 100 nM"}
{"COMPOUND": "Cc1nc(-c2ccccc2)c(-c2ccccc2)n1CCCCCCCNC(=O)Oc1ccc(C#N)cc1 [Example 27]", "SYSTEM TESTED": "human FAAH (Homo sapiens)", "IC50": "< 10 nM"}
{"COMPOUND": "Cc1nc(-c2ccc(F)cc2)c(-c2ccc(F)cc2)n1CCCCCCNC(=O)Oc1c(F)cccc1F [Example 44]", "SYSTEM TESTED": "human FAAH (Homo sapiens)", "IC50": "10 to 100 nM"}
{"COMPOUND": "Cc1ccccc1OC(=O)NCCCCCCn1c(C)nc(-c2ccccc2)c1-c1ccccc1 [Example 14]", "SYSTEM TESTED": "human FAAH (Homo sapiens)", "IC50": "< 10 nM"}
{"COMPOUND": "Cc1nc(-c2ccccc2)c(-c2ccccc2)n1CCCCCNC(=O)Oc1ccc(F)cc1F [Example 33]", "SYSTEM TESTED": "human FAAH (Homo sapiens)", "IC50": "10 to 100 nM"}
{"COMPOUND": "Cc1nc(-c2ccccc2)c(-c2ccccc2)n1CCCCCC(NC(=O)Oc1ccccc1F)c1ccccc1 (centres unmarked) [Example 74]", "SYSTEM TESTED": "human FAAH (Homo sapiens)", "IC50": "100 to 1000 nM"}
{"COMPOUND": "COc1ccccc1OC(=O)NCCCCCCCn1c(C)nc(-c2ccccc2)c1-c1ccccc1 [Example 29]", "SYSTEM TESTED": "human FAAH (Homo sapiens)", "IC50": "10 to 100 nM"}
